Recorded fold over background for the following binders
# experimental.target: T1, SARS-CoV-2 Spike S1 domain D614G (SARS-CoV-2, UniProt P0DTC2 16-685)
# T1 construct: domain: S1
# experimental.details: HTRF, soluble S1 construct

>  <binder>
PR194_00232 (antibody, V domains shown, also called IMM20190; PR194_00190) VH: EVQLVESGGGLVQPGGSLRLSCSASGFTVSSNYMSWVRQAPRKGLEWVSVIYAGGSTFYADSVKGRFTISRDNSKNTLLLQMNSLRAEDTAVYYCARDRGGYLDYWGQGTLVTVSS VL: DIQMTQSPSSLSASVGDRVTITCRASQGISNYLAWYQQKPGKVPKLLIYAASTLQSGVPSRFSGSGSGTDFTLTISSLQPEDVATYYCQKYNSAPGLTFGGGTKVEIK

>  <fold over background>
4.84 fold over background

$$$$
>  <binder>
PR200_00622 (antibody, V domains shown, also called IMM20253; PR200_00253) VH: QVQLVESGGGVVQPGRSLRLSCTASGFTFSTYGMHWVRQAPGKGLEWVAVISYDGSSKHYAESVKGRFTISRDNSNNTLYLQMNRLRAEDTAVYYCARDGQPPGWGNYFDYWGQGTLVTVAS VL: SYVLTQPPSVSVAPGKTARITCGGNGIGSKSVYWYQQKPGQAPEVVVYDDSDRPSGIPERFSGSNSGNTATLTISRVEAGDEADYYCQVWDSSSDPWVFGGGTKLTVL

>  <fold over background>
6.1 fold over background

$$$$
>  <binder>
PR201_00151 (antibody, V domains shown) VH: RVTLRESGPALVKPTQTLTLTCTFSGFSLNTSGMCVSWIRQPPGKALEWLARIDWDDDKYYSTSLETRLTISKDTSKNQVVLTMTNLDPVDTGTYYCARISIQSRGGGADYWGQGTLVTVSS VL: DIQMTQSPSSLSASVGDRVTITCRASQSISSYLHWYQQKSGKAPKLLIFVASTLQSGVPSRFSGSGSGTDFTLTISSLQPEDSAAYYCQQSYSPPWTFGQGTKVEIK

>  <fold over background>
7.25 fold over background

$$$$
>  <binder>
PR193_00018 (antibody, V domains shown, also called IMM20184; IMM200184) VH: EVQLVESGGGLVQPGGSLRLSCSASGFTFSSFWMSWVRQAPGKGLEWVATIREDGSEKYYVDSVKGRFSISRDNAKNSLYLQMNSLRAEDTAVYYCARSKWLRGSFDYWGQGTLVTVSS VL: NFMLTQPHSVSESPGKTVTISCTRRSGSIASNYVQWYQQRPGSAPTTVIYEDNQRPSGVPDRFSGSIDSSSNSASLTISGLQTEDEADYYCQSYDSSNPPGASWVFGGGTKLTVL

>  <fold over background>
4.93 fold over background

$$$$
